Sourced from patent US20240002516A1

Items are presented alongside their recorded koff.
Target: T1, extracellular domain (ECD) of human TrkA protein, N-terminal flag tag and C-terminal His tag (PHA) (human, UniProt P04629 33-423)
T1 construct: Made in 293-F cells and purified by IMAC; also called TrkA ECD protein; TrkA (ECD); not shown: flag tag at the N-terminus (after the signal peptide); His tag at the C-terminus
T1 sequence (P04629 33-423): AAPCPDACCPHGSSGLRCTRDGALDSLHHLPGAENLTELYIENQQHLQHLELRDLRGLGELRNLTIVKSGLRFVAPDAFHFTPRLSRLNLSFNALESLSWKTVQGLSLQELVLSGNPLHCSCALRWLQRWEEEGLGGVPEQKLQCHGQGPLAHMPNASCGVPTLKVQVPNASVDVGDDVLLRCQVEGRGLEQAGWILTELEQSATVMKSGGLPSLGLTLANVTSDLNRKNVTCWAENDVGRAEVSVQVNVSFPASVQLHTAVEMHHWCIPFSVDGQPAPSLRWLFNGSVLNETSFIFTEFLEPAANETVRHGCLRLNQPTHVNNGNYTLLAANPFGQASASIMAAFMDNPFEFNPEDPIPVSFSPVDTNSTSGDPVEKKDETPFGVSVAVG
Experiment: BLI (ForteBio)
Respond numerically; units are s⁻¹ and should not be typed.

Record excerpt, results attached:
- BINDER: "PHD29 (antibody, V domains shown) VH: QVQLVQSGAEVKKPGASVKVSCKASGYTFTTYWMHWVRQAPGQGLEWIGTIYPGNSDTSFAQKFQGRVTLTRDTSTSTAYMELSSLRSEDTAVYYCTRFYFEDWYFDVWGQGTTVTVSS VL: DIQMTQSPSSLSASVGDRVTITCRASSSISWLYWFQQKPGKAPKPLIYYTSSLGSGVPSRFSGSGSGTDYTLTISSLQPEDFATYYCQQWHSYPPTFGGGTKVEIK"
  METRIC NAME: "koff"
  REPORTED MEASUREMENT: 0.00441
- BINDER: "PHD25 (antibody, V domains shown) VH: QVQLVQSGAEVKKPGASVKVSCKASGYTFTTYWMHWVRQAPGQGLEWIGTIYPGNSDTSFAQKFQGRVTLTRDTSTSTAYMELSSLRSEDTAVYYCTRFYFEDWYFDVWGQGTTVTVSS VL: DIQMTQSPSSLSASVGDRVTITCRASSSISWLYWFQQKPGKAPKPLIYYTSTLGSGVPSRFSGSGSGTDYTLTISSLQPEDFATYYCQQWHSYPPTFGGGTKVEIK"
  METRIC NAME: "koff"
  REPORTED MEASUREMENT: 0.00471
- BINDER: "PHD26 (antibody, V domains shown) VH: QVQLVQSGAEVKKPGASVKVSCKASGYTFTEYWMHWVRQAPGQGLEWIGTIYPGNSDTSYAQKFQGRVTLTRDTSTSTAYMELSSLRSEDTAVYYCTRFYFEDWYFDVWGQGTTVTVSS VL: DIQMTQSPSSLSASVGDRVTITCRASSSISWLYWFQQKPGKAPKPLIYYTSSLGSGVPSRFSGSGSGTDYTLTISSLQPEDFATYYCQQWHSYPPTFGGGTKVEIK"
  METRIC NAME: "koff"
  REPORTED MEASUREMENT: 0.00811

Next up:
Which value of koff has been reported for PHD22 (antibody, V domains shown) VH: QVQLVQSGAEVKKPGASVKVSCKASGYTFTEYWMHWVRQAPGQGLEWIGTIYPGNSDTSYAQKFQGRVTLTRDTSTSTAYMELSSLRSEDTAVYYCTRFYFEDWYFDVWGQGTTVTVSS VL: DIQMTQSPSSLSASVGDRVTITCRASSSISWLYWFQQKPGKAPKPLIYYTSTLGSGVPSRFSGSGSGTDYTLTISSLQPEDFATYYCQQWHSYPPTFGGGTKVEIK in the records?
0.0113
